From: paper PMC9062193

molecular target: lactoferrin (Lac) (bovine? ("from bovine milk"), UniProt P24627 20-708); experiment: protein microarray
Sequence (P24627 20-708): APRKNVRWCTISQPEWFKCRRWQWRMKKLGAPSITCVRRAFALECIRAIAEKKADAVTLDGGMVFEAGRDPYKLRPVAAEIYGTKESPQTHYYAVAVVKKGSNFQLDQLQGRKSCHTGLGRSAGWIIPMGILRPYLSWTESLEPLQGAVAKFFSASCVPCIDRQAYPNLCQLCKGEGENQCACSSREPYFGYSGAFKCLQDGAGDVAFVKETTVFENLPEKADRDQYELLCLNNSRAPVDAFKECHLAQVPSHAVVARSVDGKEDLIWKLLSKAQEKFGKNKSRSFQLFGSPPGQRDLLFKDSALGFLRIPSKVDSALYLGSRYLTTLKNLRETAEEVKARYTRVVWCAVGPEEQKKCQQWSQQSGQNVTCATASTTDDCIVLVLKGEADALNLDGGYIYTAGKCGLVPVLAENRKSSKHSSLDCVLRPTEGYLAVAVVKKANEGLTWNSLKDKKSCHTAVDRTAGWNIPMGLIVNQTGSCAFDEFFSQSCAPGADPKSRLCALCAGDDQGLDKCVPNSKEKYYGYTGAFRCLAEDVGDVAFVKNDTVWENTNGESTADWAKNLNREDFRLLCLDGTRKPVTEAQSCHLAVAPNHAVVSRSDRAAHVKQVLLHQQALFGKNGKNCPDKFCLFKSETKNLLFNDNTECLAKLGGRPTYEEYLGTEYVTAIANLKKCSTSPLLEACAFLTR
Would you kindly list binding signal for each of these binders?
Numbers only, in fluorescence intensity.

// below: answered binders
[[record]]
binder = "YFL-5 (Lac-A3, Lac8-2), truncated (ssDNA) DNA: CAGGCAGGACACCGTAACCGGGCATTTGCTCTCAATTTAGTCTCAAATTGTGGCCTGCCTG"
test_result = 2240

[[record]]
binder = "YFL-4 (Lac-A1, Lac1-4), truncated (ssDNA) DNA: GCAGGACACCGTAACACGGGCTGATGCTCTCTTTATTTTACCTAAATAAAGTGTCCTGC"
test_result = 2150

[[record]]
binder = "AGGCAGGACACCGTAACCGGTGCATCTATGGCTACTAGCTCTTCCTGCCT (ssDNA) [YFL-6 (Lac-A4), truncated]"
test_result = 2840

[[record]]
binder = "AGGCAGGACACCGTAACCGGTGCATCTATGGCTACTAGCTTTTCCTGCCT (ssDNA) [YFL-1 (Lac-6a), truncated]"
test_result = 1780


// switching to the query binder
Return binding signal for the following binder: YFL-7 (Lac-A6), truncated (ssDNA) DNA: GCAGGACACCGTAACGGGTGCACACTCTTATTTTTACACGAGCCAAAAATATGTCCTGC 2490
